Molecular target: T1, B-cat-Halo (UniProt P35222 1-781)
T1 sequence (looked up): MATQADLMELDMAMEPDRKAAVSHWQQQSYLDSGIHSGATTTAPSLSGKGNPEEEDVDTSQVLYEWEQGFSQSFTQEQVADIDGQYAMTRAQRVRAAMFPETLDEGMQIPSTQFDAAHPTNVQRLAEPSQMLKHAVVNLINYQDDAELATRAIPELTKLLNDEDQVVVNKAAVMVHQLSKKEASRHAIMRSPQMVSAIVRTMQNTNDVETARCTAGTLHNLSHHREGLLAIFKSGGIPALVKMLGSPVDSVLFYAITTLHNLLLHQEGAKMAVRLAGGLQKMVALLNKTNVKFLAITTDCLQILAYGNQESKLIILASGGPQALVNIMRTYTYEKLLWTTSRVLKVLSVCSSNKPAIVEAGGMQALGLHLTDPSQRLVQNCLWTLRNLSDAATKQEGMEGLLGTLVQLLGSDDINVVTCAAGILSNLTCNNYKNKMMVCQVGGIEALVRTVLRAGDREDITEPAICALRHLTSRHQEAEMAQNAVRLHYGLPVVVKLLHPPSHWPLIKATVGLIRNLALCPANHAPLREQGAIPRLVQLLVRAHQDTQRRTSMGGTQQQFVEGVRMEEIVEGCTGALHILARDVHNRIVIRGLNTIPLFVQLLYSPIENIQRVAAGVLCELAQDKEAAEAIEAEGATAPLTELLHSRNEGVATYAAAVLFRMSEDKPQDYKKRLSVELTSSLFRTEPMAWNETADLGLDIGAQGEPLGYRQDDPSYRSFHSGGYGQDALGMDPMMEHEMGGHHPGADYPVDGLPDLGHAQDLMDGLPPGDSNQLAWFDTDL
Experiment: cell-based or functional assay
Starred links: 1 amine or outer side, 2 acyl side, 3 side chain; linkers in the order of their positions; H or OH if unused. Positions of bridges follow the written chain, without caps; N, C: chain ends. Non-standard residues stand in square brackets, D forms with d. Primed or numbered codes have the meaning given here. PyrS2″ = (S)-3-amino-1-((pent-4-en-1-yloxy)carbonyl)pyrrolidine-3-carboxylic acid (stapling residue), C=CCCCOC(=O)N1CC[C@@](N[*:1])(C(=O)[*:2])C1; B5(18) = 2,2-bis(4-pentenyl)glycine (2-amino-2-(pent-4-en-1-yl)hept-6-enoic acid), stitching residue, C=CCCCC(CCCC=C)(N[*:1])C(=O)[*:2]; TfeGA = (S)-2-amino-3-((carboxymethyl)(2,2,2-trifluoroethyl)amino)propanoic acid, O=C([C@H](CN(CC(=O)[*:3])CC(F)(F)F)N[*:1])[*:2]; B5(3) = 2,2-bis(4-pentenyl)glycine (stitching residue), C=CCCCC(CCCC=C)(N[*:1])C(=O)[*:2]; Phe(2-Cl) = N[C@@H](Cc1ccccc1Cl)C(=O)O; Bta = N[C@@H](Cc1csc2ccccc12)C(=O)O; αAllylPro = C=CC[C@@]1(C(=O)O)CCCN1; tBuAla = CC(C)(C)C[C@H](N)C(=O)O; S8 = C=CCCCCCC[C@](C)(N)C(=O)O; hSer = N[C@@H](CCO)C(=O)O
Exam item: assign YES to entries whose NanoBRET Abs IC50 is below 10 µM and NO to entries at or above 10 µM. Note that a value of exactly 10 µM receives NO.

Please review the entries below; each comes with its answer.
In [3]: df
Out[3]:
                                     binder  label
0  Ac-[αAllylPro]D[tBuAla][B5(18)]D[TfeGA]ASFN[PyrS2″][Phe(2-Cl)][Bta]Q-NH2 (staple 1-4, 4-11) [I-1004]     NO
1  Ac-[αAllylPro]D[tBuAla][B5(18)]D[TfeGA]KAFN[PyrS2″][Phe(2-Cl)][Bta]Q-NH2 (staple 1-4, 4-11) [I-1011]     NO

Input Ac-[αAllylPro]D[tBuAla][B5(18)]DDAAFT[PyrS2″][Phe(2-Cl)][Bta]S-NH2 (staple 1-4, 4-11) [I-1015] ; condition: NanoBRET Abs IC50 strictly below 10 µM. Does it hold?
YES

Input Ac-[αAllylPro]D[tBuAla][B5(3)]D[TfeGA]AAF[hSer][S8][Phe(2-Cl)][Bta][hSer]-NH2 (staple 1-4, 4-11) [I-1000] ; condition: NanoBRET Abs IC50 strictly below 10 µM. Does it hold?
NO

Input Ac-[αAllylPro]D[tBuAla][B5(18)]DNAAFT[PyrS2″][Phe(2-Cl)][Bta]Q-NH2 (staple 1-4, 4-11) [I-1014] ; condition: NanoBRET Abs IC50 strictly below 10 µM. Does it hold?
NO
